These measurements were taken from PubChem BioAssay (NCI).

System: U251 CNS
PROTOCOL: NCI tumour cell line growth inhibition, 48 h
// TGI lookup, one value per entry
QUANTITY: TGI

molecule="CC(=O)OC1COC(N2C(=O)C(=O)c3cc(Br)c([N+](=O)[O-])cc32)C(OC(C)=O)C1OC(C)=O (centres undefined)" quantity=TGI readout_value="> 100 µM"
molecule=CC1CCN(c2nnc(Cl)cc2C(=O)c2ccccc2)CC1 quantity=TGI readout_value="> 100 µM"
molecule=Cn1c(=O)c(Cc2ccc(F)cc2F)cc2cnc(NC3CCOCC3)nc21 quantity=TGI readout_value="> 25 µM"
molecule="OC1(c2ccc(Cl)cc2)c2ccccc2C2=Nc3ccccc3CN21 (centres undefined)" quantity=TGI readout_value="> 100 µM"

----------
Let's go through some GI50 measurements on U251 CNS together.
QUANTITY: GI50

compound=O=Nc1c(-c2cccc([N+](=O)[O-])c2)nc2ncccn12 quantity=GI50 readout_value="13900 nM"
compound=O=C1c2cc3c(cc2-c2c1c1ccc([N+](=O)[O-])cc1c(=O)n2CCCCl)OCO3 quantity=GI50 readout_value="82.8 nM"
compound=COC(=O)c1c(-c2ccccc2)csc1NC(=O)c1c(-c2ccccc2)noc1C quantity=GI50 readout_value="321 nM"
compound=COc1ccc2c(CNCCCCO)cc3cc4c(cc3c2c1)OCO4 quantity=GI50 readout_value="1850 nM"

----------
// log10 of TGI lookup, one value per entry
Tested on: CCRF-CEM leukemia
PROTOCOL: NCI tumour cell line growth inhibition, 48 h
QUANTITY: log10 of TGI (log10 of the value in µM)

compound="CC1OC(OC2C(CO)OC(O[C@H]3CC[C@@]4(C)C(=CC[C@H]5[C@@H]6C[C@@H]7O[C@](O)(CC[C@@H](C)COC8OC(CO)C(O)C(O)C8O)[C@@H](C)[C@@H]7[C@@]6(C)CC[C@@H]54)C3)C(OC3OC(C)C(O)C(O)C3O)C2O)C(O)C(O)C1O (stereo partly specified)" quantity="log10 of TGI" readout_value=0.80
compound=COc1cc(-c2ccc(-c3ccc(C(=N)N)s3)s2)cc(OC)c1OC quantity="log10 of TGI" readout_value=1.02
compound=O=c1c(-c2ccccc2)c[nH]c2cc([N+](=O)[O-])c(/C(Cl)=C/c3ccccc3)cc12 quantity="log10 of TGI" readout_value=1.31
compound="CCC(=O)O[C@@H]1C2C(OC(C)=O)C34COC(C)([C@@H]3C3C(C[C@]3(C)OC(C)=O)[C@@H](OC(=O)c3ccccc3)C4=O)[C@H](OC(C)=O)[C@@]2(OC(C)=O)C[C@@H]1C (stereo partly specified)" quantity="log10 of TGI" readout_value=1.57
compound=CC(C)(C)CC(C)(C)Cc1ccc(OCCOCC[N+](C)(C)Cc2ccccc2)cc1 quantity="log10 of TGI" readout_value=0.57
compound=C=C1C(=O)O[C@H]2[C@H]1CC/C(Cn1cc(CCC)nn1)=C\CC[C@@]1(C)O[C@@H]21 quantity="log10 of TGI" readout_value=0.99
compound=O=Cc1ccc(C(F)(F)F)cc1.[C-]#[O+].[C-]#[O+].[C-]#[O+].[Cr] quantity="log10 of TGI" readout_value=1.81
compound=Cc1cc(SCC(=O)c2ccc(Br)cc2)cc(C)[o+]1 quantity="log10 of TGI" readout_value=1.64

----------
// TGI lookup, one value per entry
Test system: OVCAR-8 ovarian
PROTOCOL: NCI tumour cell line growth inhibition, 48 h
QUANTITY: TGI

compound="N#CC(C(=O)c1ccccc1F)c1nc2cc(C(F)(F)F)ccc2s1 (stereo not given)" quantity=TGI readout_value="> 100 µM"
compound=COC(=O)CCCc1ccc2c(c1)CCC2 quantity=TGI readout_value="> 100 µM"
compound=NC12c3c4cccc3Oc3cccc(c31)Oc1cccc(c12)O4 quantity=TGI readout_value="> 50 µM"
compound="C[C@H](NC(=O)OC1C2C=CC(O)C1CC2)c1ccccc1 (stereo not given in full)" quantity=TGI readout_value="> 100 µM"
compound="COC(=O)CP1(=O)OC2C(C3CCC2(C)C3(C)C)N1c1cc(C(F)(F)F)cc(C(F)(F)F)c1 (stereo not given)" quantity=TGI readout_value="> 100 µM"

----------
Tested on: SNB-75 CNS
PROTOCOL: NCI tumour cell line growth inhibition, 48 h
QUANTITY: GI50

molecule=COC(=O)c1ccc2c(c1)nc(-c1ccc(Cl)cc1)n2-c1cc(C(C)(C)C)[nH]n1 quantity=GI50 readout_value="2.14 µM"
molecule=CCCCCCCCSC1=CC(=O)C(OC)=C(OC)C1=O quantity=GI50 readout_value="2.21 µM"
molecule=COc1cc(/C=C/C(=O)c2ccc(Nc3nc(Nc4ccc(F)cc4)nc(Nc4ccc(F)cc4)n3)cc2)cc(OC)c1OC quantity=GI50 readout_value="> 100 µM"
molecule="CC1=C(C(=O)Nc2ccc(F)c(Cl)c2)C(c2cccc(Cl)c2)NC(=O)N1 (stereo unspecified)" quantity=GI50 readout_value="6.2 µM"
molecule=COC(=O)c1c(-c2ccccc2)csc1NC(=O)c1c(-c2ccccc2)noc1C quantity=GI50 readout_value="3.59 µM"
molecule=Cn1c(=O)c(Cc2ccc(F)cc2F)cc2cnc(NC3CCOCC3)nc21 quantity=GI50 readout_value="> 17.5 µM"
molecule=CCN1C(=O)N(c2c(F)c(OC)cc(OC)c2F)Cc2cnc3[nH]c(CN4CCOCC4)cc3c21 quantity=GI50 readout_value="1.13 µM"
molecule=O=Cc1ccc(C(F)(F)F)cc1.[C-]#[O+].[C-]#[O+].[C-]#[O+].[Cr] quantity=GI50 readout_value="15.6 µM"
molecule=Cc1c2c(nn1-c1ccc(S/N=C3\SCC(=O)CN3c3ccccc3)cc1)-c1ccccc1CC2 quantity=GI50 readout_value="> 50 µM"
molecule=O=C1NC(=NCc2ccccn2)S/C1=C\c1ccc2ncccc2c1 quantity=GI50 readout_value="4.21 µM"
molecule="CCOc1ccc2c(c1)/C(=C\\C=C\\C1CC(C)C3CC(OCC)CCC3N1CC)CC(C)N2CC (stereo unspecified)" quantity=GI50 readout_value="0.599 µM"

----------
Test system: SW-620 colon
PROTOCOL: NCI tumour cell line growth inhibition, 48 h
Where a SMILES comes first, the peptide text is derived from it. [ ]: non-standard residue; d: D form. The star is where a group is joined. ξ: configuration not given here. X37 = O=C(OCc1ccccc1)[C@@H]1CCC[C@H]1N*; Fmoc = O=C(OCC1c2ccccc2-c2ccccc21)*; ξW = NC(Cc1c[nH]c2ccccc12)C(=O)O; ξF = NC(Cc1ccccc1)C(=O)O; Boc = CC(C)(C)OC(=O)*; ξK = NCCCCC(N)C(=O)O; ξT = CC(O)C(N)C(=O)O; tBu = CC(C)(C)*
// TGI lookup, one value per entry
QUANTITY: TGI

compound="CC(OC(C)(C)C)C(NC(=O)C(CCCCNC(=O)OC(C)(C)C)NC(=O)C(Cc1c[nH]c2ccccc12)NC(=O)C(Cc1ccccc1)NC(=O)OCC1c2ccccc2-c2ccccc21)C(=O)NC(Cc1ccccc1)C(=O)N[C@@H]1CCC[C@H]1C(=O)OCc1ccccc1 (stereo partly drawn) (Fmoc-[ξF][ξW][ξK](Boc)[ξT](tBu)[ξF]-X37)" quantity=TGI readout_value="> 100 µM"
compound=Cn1c2ccccc2n2c(=O)c(-c3ccc(O)cc3)nnc12 quantity=TGI readout_value="> 100 µM"
compound=CCCCCCc1cc(C=O)sc1-c1ccc(-c2sc(-c3ccc(-c4ccc(-c5cc(CCCCCC)c(-c6ccc(-c7sc(C=O)cc7CCCCCC)s6)s5)s4)s3)cc2CCCCCC)s1 quantity=TGI readout_value="> 100 µM"

----------
Test system: M14 melanoma
PROTOCOL: NCI tumour cell line growth inhibition, 48 h
// TGI lookup, one value per entry
QUANTITY: TGI (µM)

molecule=CC(C)(C)[C@@H]1NC(=O)CN1C(=O)OCc1ccccc1 relation_qualifier=> readout_value=100
molecule=O=C(/C=C/c1ccccc1F)C(c1ccccc1)c1ccccc1 relation_qualifier== readout_value=6.81
molecule="CCCCCCCCCCCCCC(=O)OCC1OC(OC)C(NC(=O)N(CCCl)N=O)C(O)C1O (stereo not given)" relation_qualifier== readout_value=39.6
molecule=N#Cc1ccc(Nc2nc3nc[nH]c3c(=O)[nH]2)cc1 relation_qualifier=> readout_value=100
molecule=C[n+]1c2ccccc2c(NC2CCNCC2)c2[nH]c3ccccc3c21 relation_qualifier== readout_value=13.4
molecule=Cn1c2ccccc2n2c(=O)c(-c3ccc(O)cc3)nnc12 relation_qualifier=> readout_value=100
molecule=CCCNc1nc(-c2ccc(OC)cc2)nc2ccccc12 relation_qualifier== readout_value=24.7
molecule=CNCCNc1nc2ccccc2c2c(=O)c3cccc(OC)c3sc12 relation_qualifier== readout_value=3.01
molecule="CC(=O)O[C@H]1CC[C@@]2(C)C(=CC[C@@H]3C2CC[C@]2(C)Nc4oncc4CC32)C1 (stereo not given in full)" relation_qualifier=> readout_value=100
molecule="CC1(C(O)c2ccccc2)CN(C(C)(C)C)C(=O)/C1=C\\Sc1ccccc1 (stereo not given)" relation_qualifier=> readout_value=100
molecule=NCCOc1ccccn1 relation_qualifier=> readout_value=100
molecule="Cc1ccccc1NC(=O)NC(CC(N)=O)c1ccc2c(c1)nc(-c1cccc(Oc3ccc(C(C)(C)C)cc3)c1)n2CCCN1CCCCC1C (stereo not given)" relation_qualifier== readout_value=3.44
molecule=Cc1ccc(/C=C(\C#N)n2nnc3cc(F)c(F)cc32)cc1 relation_qualifier== readout_value=14.9
molecule="O=C(CC1C(=O)Nc2ccccc2S1=O)Nc1cccc(Cl)c1 (stereo not given)" relation_qualifier=> readout_value=65
molecule=COC(=O)c1ccc2c(c1)nc(-c1ccc(Cl)cc1)n2-c1cc(C(C)(C)C)[nH]n1 relation_qualifier== readout_value=8.22
